- Assay system: Human immunodeficiency virus type 1 reverse transcriptase (Human immunodeficiency virus 1)
- Test protocol: Compound ability to inhibit the production of HIV reverse transcriptase (RT) in preinfected PBL (peripheral blood lymphocytes) at 7 days at a concentration 1 uM
- Assay type: functional
Binary label based on Activity (c.p.m. 50ul-1) with cut-off 1000: below gives condition met, not below gives condition not met.

{"columns": ["Compound", "Label"],
 "data": [
  ["Cc1cn([C@H]2C[C@H](N=[N+]=[N-])[C@@H](COP(=O)(O)OCCO[C@H]3O[C@H](CO)[C@@H](O)[C@H](O)[C@@H]3O)O2)c(=O)[nH]c1=O", "condition met"],
  ["Cc1cn([C@H]2C[C@H](N=[N+]=[N-])[C@@H](COP(=O)(O)OC[C@H]3OC(O)[C@@H](O)[C@@H](O)[C@@H]3O)O2)c(=O)[nH]c1=O (some centres not stated)", "condition met"]
]}

## Input Is it true that Activity (c.p.m. 50ul-1) reported for CCCCCCCCCCCCCCCCOP(=O)(OC[C@H]1OC(O)[C@H](O)[C@@H](O)[C@@H]1O)OC[C@H]1OC(n2cc(C)c(=O)[nH]c2=O)C[C@@H]1N=[N+]=[N-] (some centres not stated) is less than 1000?
## Output condition not met

## Input Is it true that Activity (c.p.m. 50ul-1) reported for CCCCCCCCCCCCCCCCOP(=O)(OC[C@H]1OC(O)[C@@H](O)[C@@H](O)[C@@H]1O)OC[C@H]1OC(n2cc(C)c(=O)[nH]c2=O)C[C@@H]1N=[N+]=[N-] (some centres not stated) is less than 1000?
## Output condition not met

## Input Is it true that Activity (c.p.m. 50ul-1) reported for CCCCCCCCCCCCCCCCOP(=O)(OCCO[C@H]1O[C@H](CO)[C@@H](O)[C@H](O)[C@@H]1O)OCC1OC(n2cc(C)c(=O)[nH]c2=O)CC1N=[N+]=[N-] (some centres not stated) is less than 1000?
## Output condition not met
